Observed IC50 values for JAK1 kinase (Homo sapiens, UniProt P23458) are listed in what follows.

Req: # query: IC50 of entry NC(=O)c1cnc(Nc2ccc3c(c2)NC[C@H](O)CO3)nc1Nc1ccc2[nH]ccc2c1
Resp: < 10 nM

Req: Same for NC(=O)c1cnc(Nc2ccc3c(c2)NC[C@H](O)CO3)nc1NC1CC(O)C1 (stereo partly shown)
Resp: 10 to 100 nM

Req: Same for NC(=O)c1cnc(Nc2ccc3c(c2)NC[C@H](O)CO3)nc1NC12CC3CC(C1)C(O)C(C3)C2 (stereo partly shown)
Resp: < 10 nM

Req: Same for CC1(CO[C@H]2CNc3cc(Nc4ncc(C(N)=O)c(NC5CC5)n4)ccc3OC2)COC1
Resp: < 10 nM

Req: Same for NC(=O)c1cnc(Nc2ccc3c(c2)NC[C@H](O)CO3)nc1NCC1CCCC1
Resp: < 10 nM

Req: Same for CO[C@H]1CNc2cc(Nc3ncc(C(N)=O)c(NC4CC4)n3)ccc2OC1
Resp: < 10 nM

Req: Same for NC(=O)c1cnc(Nc2ccc3c(c2)NC[C@H](O)CO3)nc1NC1CCCCC1
Resp: 10 to 100 nM

Req: Same for NC(=O)c1cnc(Nc2ccc3c(c2)NCC(O)CO3)nc1NC12CC3CC(CC(C3)C1)C2 (stereo not shown)
Resp: 10 to 100 nM

Req: Same for NC(=O)c1cnc(Nc2ccc3c(c2)NC[C@H](O)CO3)nc1NCCN1CCOCC1
Resp: 10 to 100 nM

Req: Same for NC(=O)c1cnc(Nc2ccc3c(c2)NC[C@H](O)CO3)nc1NC1CCOC1 (stereo partly shown)
Resp: 10 to 100 nM

Req: Same for NC(=O)c1cnc(Nc2ccc3c(c2)NC[C@H](OCC2CCCCO2)CO3)nc1NC1CC1 (stereo partly shown)
Resp: < 10 nM

Req: Same for NC(=O)c1cnc(Nc2ccc3c(c2)NC[C@H](O)CO3)nc1NC1CC1
Resp: < 10 nM

Req: Same for NC(=O)c1cnc(Nc2ccc3c(c2)NCC(O)CO3)nc1NCC(F)(F)F (stereo not shown)
Resp: 10 to 100 nM

Req: Same for NC(=O)c1cnc(Nc2ccc3c(c2)NC[C@H](O)CO3)nc1NCC1CC1
Resp: < 10 nM

Req: Same for NC(=O)c1cnc(Nc2ccc3c(c2)NCC(O)CO3)nc1NC1CCCCC1 (stereo not shown)
Resp: 10 to 100 nM

Req: Same for NC(=O)c1cnc(Nc2ccc3c(c2)NC[C@H](O)CO3)nc1NCC1CCCCC1
Resp: 10 to 100 nM

Req: Same for CCCNc1nc(Nc2ccc3c(c2)NC[C@H](O)CO3)ncc1C(N)=O
Resp: < 10 nM

Req: Same for COCCOCCO[C@H]1CNc2cc(Nc3ncc(C(N)=O)c(NC4CC4)n3)ccc2OC1
Resp: < 10 nM

Req: Same for NC(=O)c1cnc(Nc2ccc3c(c2)NC[C@H](OCCO)CO3)nc1NC1CC1
Resp: < 10 nM

Req: Same for NC(=O)c1cnc(Nc2ccc3c(c2)NC[C@H](O)CO3)nc1NCCCCO
Resp: < 10 nM

Req: Same for CC(C)(C)Nc1nc(Nc2ccc3c(c2)NC[C@H](O)CO3)ncc1C(N)=O
Resp: 10 to 100 nM

Req: Same for NC(=O)c1cnc(Nc2ccc3c(c2)NC[C@H](O)CO3)nc1NC12CC3CC(CC(C3)C1)C2
Resp: 10 to 100 nM

Req: Same for CC(Nc1nc(Nc2ccc3c(c2)NC[C@H](O)CO3)ncc1C(N)=O)C(F)(F)F (stereo partly shown)
Resp: 10 to 100 nM

Req: Same for NC(=O)c1cnc(Nc2ccc3c(c2)NC[C@H](O)CO3)nc1NC1CCC(O)C1 (stereo partly shown)
Resp: < 10 nM

Req: Same for NC(=O)c1cnc(Nc2ccc3c(c2)NC[C@H](O)CO3)nc1NCc1ccnc2[nH]ccc12
Resp: < 10 nM

Req: Same for CO[C@@H]1CNc2cc(Nc3ncc(C(N)=O)c(NC4CC4)n3)ccc2OC1
Resp: 10 to 100 nM

Req: Same for COCCO[C@H]1CNc2cc(Nc3ncc(C(N)=O)c(NC4CC4)n3)ccc2OC1
Resp: < 10 nM

Req: Same for COCCCNc1nc(Nc2ccc3c(c2)NC[C@H](O)CO3)ncc1C(N)=O
Resp: 10 to 100 nM

Req: Same for CC(Nc1nc(Nc2ccc3c(c2)NC[C@H](O)CO3)ncc1C(N)=O)C1CC1 (stereo partly shown)
Resp: < 10 nM

Req: Same for NC(=O)c1cnc(Nc2ccc3c(c2)NC[C@H](OCC2CCCO2)CO3)nc1NC1CC1 (stereo partly shown)
Resp: < 10 nM

Req: Same for NC(=O)c1cnc(Nc2ccc3c(c2)NC[C@H](O)CO3)nc1NCCCN1CCOCC1
Resp: 10 to 100 nM

Req: Same for CCCCCNc1nc(Nc2ccc3c(c2)NC[C@H](O)CO3)ncc1C(N)=O
Resp: < 10 nM

Req: Same for NC(=O)c1cnc(Nc2ccc3c(c2)NC[C@H](OCC(=O)O)CO3)nc1NC1CC1
Resp: < 10 nM

Req: Same for COCCO[C@@H]1CNc2cc(Nc3ncc(C(N)=O)c(NC4CC4)n3)ccc2OC1
Resp: 10 to 100 nM

Values from patent US20200172529A1
